Reported log10 Kd values for a set of sequences
- measurement_target: HLA-A*32:01
- measurement_protocol: IEDB peptide-MHC binding, purified MHC/competitive/radioactivity; filed as Kd, often an IC50 or EC50 that approximates it; bounds were set here for any values at or beyond the usual limits of such assays
- condition_label: source organism: Vaccinia virus WR
A value of 2 here means Kd of 100 in nM, since values are log10.

Previously resolved entries follow.
{"columns": ["seq_string", "log10 Kd"],
 "data": [
  ["FIFLKKNEL", 4.11],
  ["AINFKIFNI", 1.34],
  ["LIILSAVAI", 2.10],
  ["RISRFANLI", 0.79],
  ["ITMVNSLTY", 1.98]
]}

I am curious: what log10 Kd value has been reported for KTIARFTYF ?
1.98

Recorded log10 Kd for ITLHLACGF , please?
0.15

Looking for the measured log10 Kd of RIFFGKTSI , can you help?
0.12

Any idea what its log10 Kd is? The sequence is KIFFRPTTI
0.04

Quick one: log10 Kd of IVINPFVKF ?
3.51

====

- measurement_target: HLA-A*02:19
- measurement_protocol: IEDB peptide-MHC binding, purified MHC/direct/fluorescence; filed as Kd, often an IC50 or EC50 that approximates it; bounds were set here for any values at or beyond the usual limits of such assays
- condition_label: source organism: Brucella suis 1330
measurement_kind: Kd

Which Kd is listed for MRIGSMATL ?
≥ 20 µM

====

- measurement_target: HLA-B*58:01
- measurement_protocol: IEDB peptide-MHC binding, purified MHC/direct/fluorescence; filed as Kd, often an IC50 or EC50 that approximates it; bounds were set here for any values at or beyond the usual limits of such assays
- condition_label: source organism: Vibrio vulnificus YJ016
pKd: −log10 of the molar value.
measurement_kind: pKd

Which measured pKd belongs to IVAQGIAAL , tested on HLA-B*58:01?
≤ 4.70

====

Listed here are sequences together with their documented Kd.
- measurement_target: HLA-A*26:01
- measurement_protocol: IEDB peptide-MHC binding, purified MHC/competitive/radioactivity; filed as Kd, often an IC50 or EC50 that approximates it; bounds were set here for any values at or beyond the usual limits of such assays
- condition_label: source organism: Mammarenavirus lassaense

{"columns": ["seq_string", "result_value"],
 "data": [
  ["VEIALYQPI", "≥ 77900 nM"]
]}

Consider the record given below.
Could you share which Kd value was measured for AAHSARPPPY ?
2280 nM

====

- measurement_target: HLA-A*03:01
- measurement_protocol: IEDB peptide-MHC binding, purified MHC/competitive/fluorescence; filed as Kd, often an IC50 or EC50 that approximates it; bounds were set here for any values at or beyond the usual limits of such assays
- condition_label: source organism: Vibrio parahaemolyticus K5030
measurement_kind: Kd

Item AGGWVLWKV has what recorded Kd?
≥ 20 µM

====

- measurement_target: HLA-A*02:01
- measurement_protocol: IEDB peptide-MHC binding, purified MHC/competitive/fluorescence; filed as Kd, often an IC50 or EC50 that approximates it; bounds were set here for any values at or beyond the usual limits of such assays
- condition_label: source organism: Vaccinia virus Copenhagen
Here the recorded Kd is given for each entry.
Give the number; nM is assumed, so skip it.

Please review the entries below; each comes with its answer.
{"columns": ["seq_string", "Kd / nM"],
 "data": [
  ["NLWNGIVPT", 0.2],
  ["YLHPKDKYL", 12.5]
]}

Name the recorded Kd for GLYRLNFRR .
966

====

- measurement_target: HLA-B*15:17
- measurement_protocol: IEDB peptide-MHC binding, purified MHC/direct/fluorescence; filed as Kd, often an IC50 or EC50 that approximates it; bounds were set here for any values at or beyond the usual limits of such assays
- condition_label: source organism: Toxoplasma gondii RH
pKd: −log10 of the molar value.
measurement_kind: pKd

Look up pKd for this sequence: THADAHTQL
≤ 4.70

====

# Kd per entry
- measurement_target: HLA-B*44:02
- measurement_protocol: IEDB peptide-MHC binding, purified MHC/competitive/radioactivity; filed as Kd, often an IC50 or EC50 that approximates it; bounds were set here for any values at or beyond the usual limits of such assays
- condition_label: source organism: Dengue virus 4 Philippines/H241/1956

{"columns": ["seq_string", "measurement_target", "Kd"],
 "data": [
  ["WEPSKGWKNW", "HLA-B*44:02", "150 nM"],
  ["MEKLRIKGM", "HLA-B*44:02", "1260 nM"],
  ["HETGRLEPSW", "HLA-B*44:02", "≥ 70200 nM"]
]}

Which Kd value is on record for QENPYRTWAY ?
7.66 nM

====

- measurement_target: HLA-B*07:02
- measurement_protocol: IEDB peptide-MHC binding, purified MHC/direct/fluorescence; filed as Kd, often an IC50 or EC50 that approximates it; bounds were set here for any values at or beyond the usual limits of such assays
- condition_label: source organism: Bacillus anthracis
pKd: −log10 of the molar value.
measurement_kind: pKd

Query (sequence): SQMPPQKIM ; field requested: pKd
≤ 4.70

====

- measurement_target: HLA-A*02:01
- measurement_protocol: IEDB peptide-MHC binding, purified MHC/direct/fluorescence; filed as Kd, often an IC50 or EC50 that approximates it; bounds were set here for any values at or beyond the usual limits of such assays
- condition_label: source organism: Mycobacterium tuberculosis
measurement_kind: pKd
pKd field: float, defined as -log10 of concentration (mol/L).

As a guide, the following entries are already answered.
{"columns": ["seq_string", "measurement_kind", "result_value"],
 "data": [
  ["ATADLELAY", "pKd", 6.09],
  ["VLPPEINSL", "pKd", 7.15]
]}

Please find the next sequence below.
Param readout= pKd; system= HLA-A*02:01; entry= GLPPGTPAV ; returns value.
7.56

====

- measurement_target: HLA-A*68:02
- measurement_protocol: IEDB peptide-MHC binding, purified MHC/competitive/fluorescence; filed as Kd, often an IC50 or EC50 that approximates it; bounds were set here for any values at or beyond the usual limits of such assays
- condition_label: source organism: Mycobacterium tuberculosis variant bovis BCG str. Pasteur 1173P2
measurement_kind: pKd
Would you please state pKd, meaning minus log10 of the concentration in mol/L, as a bare number?

What does the data say about its pKd? Entry: AVFLSYIGY
5.52

====

Parameter: pKd. Scope: all listed entries.
- measurement_target: HLA-A*69:01
- measurement_protocol: IEDB peptide-MHC binding, purified MHC/direct/fluorescence; filed as Kd, often an IC50 or EC50 that approximates it; bounds were set here for any values at or beyond the usual limits of such assays
- condition_label: source organism: Vibrio cholerae
pKd: −log10 of the molar value.

{"columns": ["seq_string", "measurement_kind", "result_value"],
 "data": [
  ["IPISGRITA", "pKd", "≤ 4.70"]
]}

// switching to the query sequence
Could you share which pKd value was measured for KEDPGDHIF ?
≤ 4.70

====

- measurement_target: HLA-A*11:01
- measurement_protocol: IEDB peptide-MHC binding, purified MHC/direct/fluorescence; filed as Kd, often an IC50 or EC50 that approximates it; bounds were set here for any values at or beyond the usual limits of such assays
- condition_label: source organism: Giardia lamblia ATCC 50803
List of Kd values.

{"columns": ["seq_string", "Kd"],
 "data": [
  ["ITASKDLCF", "≥ 20 µM"]
]}

Need Kd of AAFLDDNAF , thanks.
≥ 20 µM

Query (sequence): RTRFFCIPK ; field requested: Kd
0.0209 µM

// lookup Kd for RPALVVDTP
≥ 20 µM

Given the sequence RVHSFFIQY , what is its reported Kd?
≤ 0.001 µM

For the sequence IRNLVKRYK , what Kd is on record?
≥ 20 µM

Form field: reported Kd of AEFWDVFLS
≥ 20 µM

I have this sequence here, AIPYFYKGK , and I need its recorded Kd.
0.308 µM

====

- measurement_target: HLA-B*07:02
- measurement_protocol: IEDB peptide-MHC binding, purified MHC/competitive/radioactivity; filed as Kd, often an IC50 or EC50 that approximates it; bounds were set here for any values at or beyond the usual limits of such assays
- condition_label: source organism: SARS coronavirus Tor2
measurement_kind: pKd
Remember, pKd is on a log scale: it is -log10 of the molar concentration.

Below: 2 sequences and their reported pKd.
{"columns": ["seq_string", "result_value"],
 "data": [
  ["FPLCANGQVF", 7.06],
  ["MPILTLTRAL", 8.02]
]}

// returns reported pKd for input APATVCGPKL
7.52

# get_value(readout='pKd', item= LPDDFMGCVL )
6.98

Could you tell me which pKd is on file for SPNLAWPLIV ?
6.91
